Biological target: anti-CD28 scFv (VH - linker 1 - VL) (biotinylated (site not stated))
Sequence (scFv, as listed by the source): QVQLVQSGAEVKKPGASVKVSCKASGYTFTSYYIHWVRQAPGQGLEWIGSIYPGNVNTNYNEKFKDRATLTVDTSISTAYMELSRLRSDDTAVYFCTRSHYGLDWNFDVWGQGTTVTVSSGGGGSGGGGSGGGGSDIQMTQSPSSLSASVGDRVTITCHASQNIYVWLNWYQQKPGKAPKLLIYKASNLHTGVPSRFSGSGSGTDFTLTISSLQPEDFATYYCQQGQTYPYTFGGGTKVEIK
Assay: phage ELISA; biotinylated anti-CD28 scFv on neutravidin plate, clonal phage supernatant, anti-M13-HRP detection;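 also: before phage addition, wells were pretreated with soluble CD28 protein in blocking buffer, or with blocking buffer only as the comparison, then phage were added without washing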
Where no end group is shown, it is not given here.
Note to self: use criterion met only for CD28 scFv signal readings below 1; a reading exactly at 1 still gets criterion not met.

Example results:
MDWCPRHLWNVCFS (peptide, not shown: large carriers, Clonal phage of the Peptide-9 library) [Phage-150]; criterion not met
MDWCPRHLWDLCFF (peptide, not shown: large carriers, Clonal phage of the Peptide-9 library) [Phage-153]; criterion not met
MDFCPISLWHECFF (peptide, not shown: large carriers, Clonal phage of the Peptide-9 library) [Phage-151]; criterion not met
MDWCPKHLWHQCFH (peptide, not shown: large carriers, Clonal phage of the Peptide-9 library) [Phage-156]; criterion not met
MDWCPRDLWNVCFN (peptide, not shown: large carriers, cysteine pairing not given here; also: displayed as fusion to phage pIII, linker and pIII sequence not given here, Clonal phage of the Peptide-9 library) [Phage-169]; criterion met

Q: Find out if reported CD28 scFv signal for MHWCPEYLWNECFA (peptide, not shown: large carriers, cysteine pairing not given here; also: displayed as fusion to phage pIII, linker and pIII sequence not given here, Clonal phage of the Peptide-9 library) [Phage-148] is less than 1
Result: criterion not met

Q: Please do the same for MDWCPRHLWDLCFA (peptide, not shown: large carriers, cysteine pairing not given here; also: displayed as fusion to phage pIII, linker and pIII sequence not given here, Clonal phage of the Peptide-9 library) [Phage-166] as well.
Result: criterion met

Q: Now consider MDWCPRYLWTECFF (peptide, not shown: large carriers, Clonal phage of the Peptide-9 library) [Phage-158] and answer again.
Result: criterion not met
